The measured values listed here are drawn from a melting point compilation (Tetko et al.; mined from patent text by program, amines drawn as free bases though some values may be those of a salt).

quantity.measured: melting point

{"compound": "CCOC(=O)Nc1cccc2c1CN(C)CC2c1ccc(Cl)cc1 (stereo unspecified)", "recorded.result": "155 °C"}
{"compound": "CCN(CC)C(=O)NCCOC(=O)c1cc(Oc2ccc(C(F)(F)F)cc2Cl)ccc1[N+](=O)[O-]", "recorded.result": "89 to 90 °C"}
{"compound": "COc1ccc2c(=O)c(-c3ccc(C)cc3)c(SCc3ccncc3)oc2c1", "recorded.result": "157 to 160 °C"}
{"compound": "CCOC(=O)N(C)C1CCN(c2nc3ccccc3n2Cc2ccc(F)cc2)CC1", "recorded.result": "125 °C"}
{"compound": "CN(C)c1nc(-c2ccccc2O)cs1", "recorded.result": "201 to 204 °C"}

Looking up CCC(=O)N(Cc1cccc2c1S(=O)(=O)N=C2C1=C(O)C(C(C)(C)C)N(Cc2ccc(F)c(C)c2)C1=O)S(C)(=O)=O (stereo unspecified) , I found its melting point recorded as 98 to 99.8 °C
